System: Escherichia coli
Assay: Antibacterial activity against Escherichia coli at 50 ug/ml after 24 hrs by agar well diffusion method
Type: functional
Settings: read-out: DIZ
endpoint: zone of inhibition at 50 µg/mL (mm)
Expressed in mm, but write only the number.

**Query** Look up and state reported zone of inhibition at 50 µg/mL for `Cc1cccc2nc(N/N=C/c3ccc[nH]3)sc12`
**Result** 17

**Query** Look up zone of inhibition at 50 µg/mL of `Cc1cccc2nc(N/N=C/c3ccc(F)cc3)sc12` and report it.
**Result** 9

**Query** Specify reported zone of inhibition at 50 µg/mL for the compound shown: `Cc1cccc2nc(N/N=C/c3cc(O)c(O)c(O)c3)sc12`
**Result** 20

**Query** Please give the documented zone of inhibition at 50 µg/mL of `Cc1cccc2nc(N/N=C/c3cc4ccccc4[nH]3)sc12`
**Result** 24

**Query** Give zone of inhibition at 50 µg/mL for `Cc1cccc2nc(N/N=C/c3ccc(O)cc3O)sc12`
**Result** 12

**Query** Retrieve zone of inhibition at 50 µg/mL measured for `Cc1cccc2nc(N/N=C/c3ccc(O)cc3Br)sc12` and print it.
**Result** 9

**Query** State, in one line, measured zone of inhibition at 50 µg/mL of `COc1ccc(/C=N/Nc2nc3cccc(C)c3s2)cc1Br`
**Result** 9

**Query** Fill in reported zone of inhibition at 50 µg/mL for this entry: `COc1cc(/C=N/Nc2nc3cccc(C)c3s2)cc(OC)c1OC`
**Result** 25

**Query** Specify zone of inhibition at 50 µg/mL for `Cc1cccc2nc(N/N=C/c3ccc(F)cc3F)sc12` and stop.
**Result** 7

**Query** Determine its reported zone of inhibition at 50 µg/mL: `COc1ccc(/C=N/Nc2nc3cccc(C)c3s2)c(OC)c1`
**Result** 18

**Query** Determine its reported zone of inhibition at 50 µg/mL: `COc1cc(/C=N/Nc2nc3cccc(C)c3s2)ccc1O`
**Result** 15

**Query** Return value of zone of inhibition at 50 µg/mL for input `COc1ccc(/C=N/Nc2nc3cccc(C)c3s2)cc1` , no commentary.
**Result** 12

**Query** Indicate its recorded zone of inhibition at 50 µg/mL; the compound in question is `Cc1cccc2nc(N/N=C/c3cccs3)sc12`
**Result** 14

**Query** Kindly indicate its recorded zone of inhibition at 50 µg/mL. Item: `O=C(N[C@H](CO)[C@H](O)c1ccc([N+](=O)[O-])cc1)C(Cl)Cl`
**Result** 27

**Query** # return recorded zone of inhibition at 50 µg/mL for entry `Cc1cccc2nc(N/N=C/c3ccccc3)sc12`
**Result** 11

**Query** Report zone of inhibition at 50 µg/mL, nothing else, for this compound: `Cc1cccc2nc(N/N=C/c3ccc([N+](=O)[O-])cc3)sc12`
**Result** 18

**Query** // fetch zone of inhibition at 50 µg/mL given entry `Cc1cccc2nc(N/N=C/c3ccc(Br)cc3Br)sc12`
**Result** 8

**Query** Read off the recorded zone of inhibition at 50 µg/mL for `Cc1cccc2nc(N/N=C/c3ccc(O)cc3)sc12`
**Result** 19

**Query** Indicate the recorded zone of inhibition at 50 µg/mL value for this compound: `COc1cc(/C=N/Nc2nc3cccc(C)c3s2)cc(Br)c1O`
**Result** 15

**Query** Please report zone of inhibition at 50 µg/mL for the following compound: `Cc1cccc2nc(N/N=C/c3ccc([N+](=O)[O-])cc3[N+](=O)[O-])sc12`
**Result** 13

**Query** State its zone of inhibition at 50 µg/mL: `Cc1cccc2nc(N/N=C/c3ccc(Br)cc3)sc12`
**Result** 7

**Query** Return reported zone of inhibition at 50 µg/mL. Input compound: `Cc1ccc(/C=N/Nc2nc3cccc(C)c3s2)cc1`
**Result** 14

**Query** Identify zone of inhibition at 50 µg/mL associated with the compound `Cc1cccc2nc(N/N=C/c3ccncc3)sc12`
**Result** 14

**Query** Specify reported zone of inhibition at 50 µg/mL for the compound shown: `Cc1cccc2nc(N/N=C/c3ccco3)sc12`
**Result** 9
